# method.summary: in vitro
# cond: human, hela cells, % viability
measurement.type: viability at 28.5 h, 10 µM (%)
Give the value, in units of %, as a plain number.

As a guide, the following entries are already answered.
query_smiles=O=S(=O)(Nc1nccnc1N1CCN(c2cnccn2)CC1)c1ccc(Cl)cc1 result=88.1
query_smiles=CC(C)(CNC(=O)Cn1cccc(C(=O)Nc2ccc(F)cc2)c1=O)c1ccccc1F result=97.4
query_smiles=Nc1ncc(-c2cccs2)nc1-c1ccc(C(=O)O)cc1 result=91.4
query_smiles=O=[N+]([O-])c1ccc(S(=O)(=O)NCCSCc2ccco2)cc1 result=94.1

In the following, a different compound is considered.
Memo: `CC(C)(C)NC(=O)CN1C(=O)[C@H]2CCCN2C(=O)c2ccccc21` , reported viability at 28.5 h, 10 µM: 89.5
